# assay name: CCTE_Shafer_MEA_dev_network_spike_peak: CCTE's Neural Network Formation Assay for Mean Number of Electrodes in Network Spike, Shafer Lab (AID 2284049);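 for AC50: fitted for loss of signal meaning fewer electrodes in network spikes than DMSO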
Active and inactive are the calls of the source. Rule for the calls: active = hit-call score of the fitted dose curve at least 0.9, where 1 is the maximum; inactive = score below 0.9.
measured parameter: AC50

Answered cases to consult:
- compound: "CN1C(=O)CN=C(c2ccccc2)c2cc(Cl)ccc21"
  AC50: "inactive"
- compound: "CC1(C)C(C=C(Cl)c2ccc(Cl)cc2)C1C(=O)OC(C#N)c1ccc(F)c(Oc2ccccc2)c1 (stereo unspecified)"
  AC50: "13.1 µM (active)"
- compound: "c1ccc2cc3c(cc2c1)-c1cccc2cccc-3c12"
  AC50: "inactive"
- compound: "CCCCC(CC)COC(=O)c1cc(Br)c(Br)c(Br)c1Br (stereo unspecified)"
  AC50: "18.9 µM (active)"
- compound: "CP(=O)(O)CCC(N)C(=O)O (stereo unspecified)"
  AC50: "inactive"

INPUT: Give a short answer stating reported AC50 for CC1(C)[C@@H](C=C(Cl)Cl)[C@@H]1C(=O)O[C@@H](C#N)c1ccc(F)c(Oc2ccccc2)c1 .
OUTPUT: 11.8 µM (active)

INPUT: Kindly indicate its recorded AC50. Item: CCOP(=S)(OCC)SCS(=O)C(C)(C)C (stereo unspecified)
OUTPUT: 0.555 µM (active)

---

# Read-out: TIMP metallopeptidase inhibitor 1 (TIMP1), TIMP1 (gene 7076)
# assay name: BSK_MyoF_TIMP1: BioMAP Diversity Plus: MyoF Assay for TIMP metallopeptidase inhibitor 1 (TIMP1) Biomarker Activity (AID 2284269)
# condition details: primary human lung fibroblasts
Calls of active or inactive are those of the source. How the source made its calls: active means hit-call score of the fitted dose curve at least 0.9, where 1 is the maximum; inactive means score below 0.9.
Outcomes you can answer with include only these: yes (1) = active, no (0) = inactive

Below are worked cases with known answers.
- compound: "O=C1C(Cl)=C(Cl)C(=O)C(Cl)=C1Cl"
  label value: "yes (1)"
- compound: "CC(C)CCCCCCCOP(=O)(Oc1ccccc1)Oc1ccccc1"
  label value: "yes (1)"
- compound: "CCC(C)c1cc([N+](=O)[O-])cc([N+](=O)[O-])c1OC(=O)C=C(C)C (stereo not drawn)"
  label value: "yes (1)"

INPUT: For CCCCCCCCCCCC#N , what call appears in the results of this test?
OUTPUT: yes (1)

INPUT: Test call, this compound: Oc1cc(Cl)ccc1Cl
OUTPUT: no (0)

---

# experimental target: human AMP-activated Protein Kinase, alpha 1 (AMPKa1), PRKAA1 (gene 5562) (UniProt Q13131)
# Sequence (Q13131 whole entry, looked up): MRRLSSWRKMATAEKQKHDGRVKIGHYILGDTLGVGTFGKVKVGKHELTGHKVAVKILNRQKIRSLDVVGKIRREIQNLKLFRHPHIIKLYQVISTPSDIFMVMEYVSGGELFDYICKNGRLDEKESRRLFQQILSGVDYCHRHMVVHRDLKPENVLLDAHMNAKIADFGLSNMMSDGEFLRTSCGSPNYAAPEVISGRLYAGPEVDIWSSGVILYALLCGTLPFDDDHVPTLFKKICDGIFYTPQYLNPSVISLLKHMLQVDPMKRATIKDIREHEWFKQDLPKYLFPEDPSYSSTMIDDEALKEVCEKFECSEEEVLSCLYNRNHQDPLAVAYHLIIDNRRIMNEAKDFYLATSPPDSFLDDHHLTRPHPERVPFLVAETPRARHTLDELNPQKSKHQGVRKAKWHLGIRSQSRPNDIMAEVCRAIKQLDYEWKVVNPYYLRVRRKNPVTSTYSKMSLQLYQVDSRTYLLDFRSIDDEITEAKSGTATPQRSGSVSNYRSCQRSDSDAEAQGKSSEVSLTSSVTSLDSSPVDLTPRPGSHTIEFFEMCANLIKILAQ
# assay name: NVS_ENZ_hAMPKa1: NovaScreen (NVS) Enzymatic Assay for human AMP-activated Protein Kinase, alpha 1 (AMPKa1) (AID 2283130)
Results filed as inconclusive are left out. Calls of active or inactive are those of the source. Rule for the calls: active = hit-call score of the fitted dose curve at least 0.9, where 1 is the maximum; inconclusive = response in the unintended direction; inactive = score below 0.9.
Field 'call' accepts active, inactive

Examples with answers:
- molecule: "COc1cc(-c2nc(NC(=O)c3cc4cc(C)cc(C)c4n3CC(=O)O)sc2CCC2CCCCC2)c(OC)cc1Cl"
  label value: "active"
- molecule: "CC1=C(/C=C/C(C)=C/C=C/C(C)=C/CO)C(C)(C)CCC1"
  label value: "inactive"
- molecule: "CNC(=O)[C@H]1O[C@@H](n2cnc3c(NCc4cc(Cl)ccc4OCc4cc(C)no4)ncnc32)[C@H](O)[C@@H]1N"
  label value: "inactive"
- molecule: "CCN(CC)C(=O)c1cc(S(=O)(=O)Cc2ccccc2)c(N2CCC(c3ccccc3)CC2)cc1N(CC)CCN(C)C"
  label value: "active"
- molecule: "CC(C)CCCCCCc1ccc(O)cc1"
  label value: "inactive"

INPUT: # outcome recorded in this test, key = O=C(Oc1ccccc1)c1cccc(C(=O)Oc2ccccc2)c1
OUTPUT: inactive

INPUT: Per the assay record, what outcome was assigned to O=C(OCCOCCOC(=O)c1ccccc1)c1ccccc1 ?
OUTPUT: inactive

INPUT: How was CC(C)(C)c1ccccc1 classified in this test?
OUTPUT: inactive

INPUT: Tell me the assay call for CCN(CC)C(=S)SSC(=S)N(CC)CC please.
OUTPUT: inactive

INPUT: Check the results log: what was the call for CN1C(=O)N(c2ccccc2Br)Cc2cnc(Nc3ccc4c(c3)OCC(CO)O4)nc21 (stereo unspecified) ?
OUTPUT: inactive

INPUT: State the result this test recorded for CC1(C)NC(=O)NC1=O .
OUTPUT: inactive

INPUT: In this assay, the call recorded for CCCCCCCCCCCCc1ccccc1 was what?
OUTPUT: inactive
